- PROTOCOL DETAILS: Tumour pharmacokinetics: fenretinide and metabolite levels in plasma and tumours of xenografted mice
- Assay type: in vivo
- TEST PARAMETERS: female, NOD-SCID, mouse, plasma, oral; melanoma xenograft mice, Bio-nFeR 100 mg/kg; read-out: Mean 4-HPR concentration: Plasma
QUANTITY NAME: concentration at 3 h (µM)
# number only, unit µM dropped from output

Task: Fill in reported concentration at 3 h for this entry: CC1=C(/C=C/C(C)=C/C=C/C(C)=C/C(=O)Nc2ccc(O)cc2)C(C)(C)CCC1 [4-HPR, 4-hydroxy (phenyl)retinamide, reference compound]
Output: 4.7

====

- PROTOCOL DETAILS: Plasma pharmacokinetics, chronic study (150 mg/Kg single vs daily for 2 weeks)
- Assay type: in vivo, CD1 female mice
- TEST PARAMETERS: female, CD1, mouse, plasma, po, 150 mg/kg, plasma analyte, oral Bio-nFeR 150 mg/kg daily, 2 week
QUANTITY NAME: AUC(0-t) (ng·h/mL)
# number only, unit ng·h/mL dropped from output

Task: Fill in reported AUC(0-t) for this entry: CC1=C(/C=C/C(C)=C/C=C/C(C)=C/C(=O)Nc2ccc(O)cc2)C(C)(C)CCC1 [4-HPR, 4-hydroxy (phenyl)retinamide, reference compound]
Output: 85100

These measurements were taken from paper PMC6706930.
